pIC50 by entry:
Target: NAD-dependent protein deacetylase sirtuin-2 (Homo sapiens)
Sequence (Q8IXJ6 whole entry): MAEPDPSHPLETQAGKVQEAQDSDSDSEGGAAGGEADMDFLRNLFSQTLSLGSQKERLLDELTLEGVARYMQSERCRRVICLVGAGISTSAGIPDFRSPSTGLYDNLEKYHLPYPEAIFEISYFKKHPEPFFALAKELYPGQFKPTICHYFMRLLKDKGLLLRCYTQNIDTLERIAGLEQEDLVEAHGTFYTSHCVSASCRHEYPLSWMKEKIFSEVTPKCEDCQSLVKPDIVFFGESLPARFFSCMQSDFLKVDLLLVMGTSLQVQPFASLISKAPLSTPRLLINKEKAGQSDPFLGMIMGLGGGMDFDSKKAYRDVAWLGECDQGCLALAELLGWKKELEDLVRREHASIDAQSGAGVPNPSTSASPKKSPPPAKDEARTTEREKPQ
Assay: Inhibition of human recombinant SIRT2 expressed in Escherichia coli cells using acetylated Lys side chain amino acids 379-382 (Arg-His-Lys-Lys(Ac)) p53 conjugated with aminomethylcoumarin as substrate by fluorescence assay
pIC50: −log10 of the molar value.
experimentalEndpoint: pIC50

CCCCn1c(=O)nc2oc3ccccc3cc-2c1=O :: 4.51
CCCn1c(=O)nc2oc3ccccc3cc-2c1=O :: 4.52
Cn1c(=O)nc2oc3ccc4ccccc4c3cc-2c1=O :: 4.95
C=CCn1c(=O)nc2oc3ccc4ccccc4c3cc-2c1=O :: 4.97
O=c1nc2oc3ccc4ccccc4c3cc-2c(=O)n1Cc1ccccc1 :: 4.80
Cn1c(=O)nc2oc3ccccc3cc-2c1=O :: 4.61
CCn1c(=O)nc2oc3ccccc3cc-2c1=O :: 4.65
CCCn1c(=O)nc2oc3ccc4ccccc4c3cc-2c1=O :: 4.90
CCCCn1c(=O)nc2oc3ccc4ccccc4c3cc-2c1=O :: 4.77
CCn1c(=O)nc2oc3ccc4ccccc4c3cc-2c1=O :: 4.52
O=c1nc2oc3ccc4ccccc4c3cc-2c(=O)n1C1CCCCC1 :: 4.23

Ref: ChEMBL document CHEMBL2169828
